Hey, just so you know, these numbers are from patent EP2998000A1.

System: tumour cells
Settings: change of drug cytotoxicity on tumour cells after co-incubation with E. coli, bacteria removed by filtration, MTS; Up/Down/NC
READOUT: Cytotoxicity E. coli

1. COc1cccc2c1C(=O)c1c(O)c3c(c(O)c1C2=O)C[C@@](O)(C(C)=O)C[C@@H]3O[C@H]1C[C@H](N)[C@H](O)[C@H](C)O1 | Down
2. CC1(C)CCC2=C(O1)c1ccccc1C(=O)C2=O | Down
3. O=C1c2c(O)ccc(O)c2C(=O)c2c(NCCNCCO)ccc(NCCNCCO)c21 | Down
4. Nc1nc(=O)[nH]cc1F | Up

----------
Test system: tumour cells
Details: change of drug cytotoxicity on tumour cells after co-incubation with E. coli, bacteria removed by filtration, MTS; Up/Down/NC
READOUT: Cytotoxicity E. coli

Worked examples, 5 molecules total:
1) Nc1nc(Cl)nc2c1ncn2[C@H]1C[C@H](O)[C@@H](CO)O1 | Down
2) OC[C@H]1O[C@@H](n2cnc3c(S)ncnc32)C[C@@H]1O [6-Mercaptopurine-2’-deoxyriboside] | Up
3) COc1cccc2c1C(=O)c1c(O)c3c(c(O)c1C2=O)C[C@@](O)(C(=O)CO)C[C@@H]3O[C@H]1C[C@H](N)[C@H](O)[C@H](C)O1 | Down
4) CC(=O)[C@]1(O)Cc2c(O)c3c(c(O)c2[C@@H](O[C@H]2C[C@H](N)[C@H](O)[C@H](C)O2)C1)C(=O)c1ccccc1C3=O | Down
5) NC(=O)c1cc(N2CC2)c([N+](=O)[O-])cc1[N+](=O)[O-] | Up

Which Cytotoxicity E. coli reading was recorded for the molecule "CC1=CC(=O)c2ccccc2C1=O" ? Down

Try this molecule too: Nc1nc(F)nc2c1ncn2[C@@H]1O[C@H](COP(=O)(O)O)[C@@H](O)[C@@H]1O [Fludarabine de phosphate] Up
